- Run parameters: in n-propanol, 313.15 K
Measurement name: solubility (mole fraction)
Give a plain numeric answer without units written out.

Report solubility (mole fraction) for NC(=O)c1cnccn1 0.00503

====

- Run parameters: in water, 318.15 K
Measurement name: solubility (mole fraction)

Report solubility (mole fraction) for NC(=O)c1cnccn1 0.00521

====

- Run parameters: in water, 293.15 K
Measurement name: solubility (mole fraction)
Give a plain numeric answer without units written out.

Report solubility (mole fraction) for NC(=O)c1cnccn1 0.00194

====

- Run parameters: in acetonitrile, 278.15 K
Measurement name: solubility (mole fraction)

Report solubility (mole fraction) for NC(=O)c1cnccn1 0.00125

====

- Run parameters: in n-butanol, 283.15 K
Measurement name: solubility (mole fraction)
Give a plain numeric answer without units written out.

Report solubility (mole fraction) for NC(=O)c1cnccn1 0.00116

====

- Run parameters: in n-butanol, 278.15 K
Measurement name: solubility (mole fraction)
Give a plain numeric answer without units written out.

Report solubility (mole fraction) for NC(=O)c1cnccn1 0.000772

====

- Run parameters: in n-propanol, 303.15 K
Measurement name: solubility (mole fraction)
Give a plain numeric answer without units written out.

Report solubility (mole fraction) for NC(=O)c1cnccn1 0.00297

====

- Run parameters: in acetone, 298.15 K
Measurement name: solubility (mole fraction)
Give a plain numeric answer without units written out.

Report solubility (mole fraction) for NC(=O)c1cnccn1 0.00495

====

- Run parameters: in acetonitrile, 308.15 K
Measurement name: solubility (mole fraction)
Give a plain numeric answer without units written out.

Report solubility (mole fraction) for NC(=O)c1cnccn1 0.0042

====

- Run parameters: in acetonitrile, 303.15 K
Measurement name: solubility (mole fraction)
Give a plain numeric answer without units written out.

Report solubility (mole fraction) for NC(=O)c1cnccn1 0.00351

====

- Run parameters: in n-butanol, 298.15 K
Measurement name: solubility (mole fraction)
Give a plain numeric answer without units written out.

Report solubility (mole fraction) for NC(=O)c1cnccn1 0.00237

====

- Run parameters: in sec-butanol, 283.15 K
Measurement name: solubility (mole fraction)
Give a plain numeric answer without units written out.

Report solubility (mole fraction) for NC(=O)c1cnccn1 0.00081

====

- Run parameters: in sec-butanol, 278.15 K
Measurement name: solubility (mole fraction)
Give a plain numeric answer without units written out.

Report solubility (mole fraction) for NC(=O)c1cnccn1 0.00053

====

- Run parameters: in acetonitrile, 288.15 K
Measurement name: solubility (mole fraction)
Give a plain numeric answer without units written out.

Report solubility (mole fraction) for NC(=O)c1cnccn1 0.00205

====

- Run parameters: in n-butanol, 293.15 K
Measurement name: solubility (mole fraction)
Give a plain numeric answer without units written out.

Report solubility (mole fraction) for NC(=O)c1cnccn1 0.00192

====

- Run parameters: in water, 323.15 K
Measurement name: solubility (mole fraction)
Give a plain numeric answer without units written out.

Report solubility (mole fraction) for NC(=O)c1cnccn1 0.006

====

- Run parameters: in acetonitrile, 313.15 K
Measurement name: solubility (mole fraction)
Give a plain numeric answer without units written out.

Report solubility (mole fraction) for NC(=O)c1cnccn1 0.00497

====

- Run parameters: in acetonitrile, 318.15 K
Measurement name: solubility (mole fraction)

Report solubility (mole fraction) for NC(=O)c1cnccn1 0.0058

====

- Run parameters: in n-propanol, 293.15 K
Measurement name: solubility (mole fraction)
Give a plain numeric answer without units written out.

Report solubility (mole fraction) for NC(=O)c1cnccn1 0.00179
